assay-details: Selectivity index, ratio of CC50 for human Lunet cells to EC50 for West Nile virus
Format: toxicity
study-conditions: read-out: Ratio CC50/EC50
measurement-label: selectivity ratio
Output: the number by itself.

What selectivity ratio value was documented for this molecule, Cc1cn(-c2ccc(NC(=O)Nc3ccccc3C)cc2)nn1 ?
162

* * *

Test system: MDCK
assay-details: Cytotoxicity against MDCK cells assessed as reduction in cell viability measured after 3 to 6 days by MTS assay
Type: cell-based, Canis lupus familiaris
study-conditions: dog
measurement-label: CC50

Solved cases (3 shown):
>  <compound>
NC1=NC2(CCN(C(=O)Nc3ccc(F)cc3)CC2)N(c2cccc(Cl)c2)C(N)=N1

>  <measurement-label>
CC50

>  <val>
51 µM

$$$$
>  <compound>
Cl.NC1=NC2(CCCN(Cc3ccccc3)C2)N(c2ccc(Cl)cc2)C(N)=N1 (stereo not given)

>  <measurement-label>
CC50

>  <val>
45 µM

$$$$
>  <compound>
COc1cccc(N2C(N)=NC(N)=NC23CCN(C(=O)c2ccc(C(F)(F)F)cc2C)CC3)c1

>  <measurement-label>
CC50

>  <val>
> 100 µM

$$$$

What CC50 value was documented for this compound, CCCN1C(N)=NC(N)=NC12CCN(C(=O)NCCC(=O)OCC)CC2 ?
> 100 µM

Next up: CC(=O)N[C@H]1[C@H]([C@H](O)[C@H](O)CO)OC(C(=O)O)=C[C@@H]1N=C(N)N [ZANAMIVIR]
> 100 µM

Next up: CCCN1C(N)=NC(N)=NC12CCN(S(=O)(=O)CCC)CC2
> 100 µM
